B1: Lysine-specific demethylase 2B, residues 656 to 722; numbered along this chain, Q8NHM5 (parent)
chain: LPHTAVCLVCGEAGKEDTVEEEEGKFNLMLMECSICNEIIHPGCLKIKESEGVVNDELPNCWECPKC

variants of: B1; test: abundance fitness (aPCA) (normalised: wild type 0, dead -1); higher = more abundant; growth selection in yeast, the domain comes from the species named; conditions: Homo sapiens
Entry flag: Y if abundance fitness reaches -0.2; N if it does not.

*Q* Check the entry LPHTAVCLVCNEAGKEDTVEEEEGKFNLMLMECSICNEIIHPGCLKIKESEGVVNDELPNCWECPKC : does abundance fitness equal or exceed -0.2?
*A* N

*Q* Evaluate LPHTAVCLVCGEAGKEDTVEEEEGKFNLMLMECSICNPIIHPGCLKIKESEGVVNDELPNCWECPKC : abundance fitness at minimum -0.2?
*A* N

*Q* Could you tell me if the measured abundance fitness of LPHTAVCLVCGEAGKEDTVEEEEGKFNLMLMECSICNEIIHPGCLKIKESEGVVNDELPECWECPKC reaches -0.2 or more?
*A* N

*Q* Test whether the variant LPHTAVCLVCGEAGKEDTVEEEEGKFNLMLMECSICNEIIHFGCLKIKESEGVVNDELPNCWECPKC records abundance fitness of -0.2 or higher.
*A* N

*Q* Evaluate LPHTAVCLVCGEAGKEDTVEEEEGKFNGMLMECSICNEIIHPGCLKIKESEGVVNDELPNCWECPKC : abundance fitness at minimum -0.2?
*A* Y
